molecular target: LAP2, Q96RT1; test: holdup assay; design: key: below the threshold = too weak to quantify, mostly under pKd 3.1 to 4; conditions: plain residues with an end cap or a label only (N-terminal biotin on a linker: ado-ado)
Sequence (Q96RT1 other isoform, or with tags, fused parts or gaps): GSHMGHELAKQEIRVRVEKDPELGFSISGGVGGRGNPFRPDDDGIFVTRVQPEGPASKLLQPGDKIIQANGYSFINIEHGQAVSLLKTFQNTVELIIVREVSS
measurement-name: pKd

- binder: "MLPANYVEAI [NEB, P20929]"
  measurement: "below the threshold"
- binder: "LVEEEEPMNL [HDAC7, Q8WUI4]"
  measurement: "below the threshold"
- binder: "QLGSPTADLA [SIPA1, Q96FS4]"
  measurement: "below the threshold"
- binder: "SGDGKTSVWI [GJC1, P36383]"
  measurement: 3.81
